measured-on: Neurogenic locus notch homolog protein 3 (Homo sapiens)
protocol-summary: NOTCH3 binders on small-molecule microarray, primary screen, biochemical, 635/667 nm fluorescence (AID 1096)
condition-notes: NOTCH3 binding, 635 nm fluorescence, higher = more signal
# key: entry, value: composite z-score

| molecule | composite z-score |
| --- | --- |
| CC1CC/C=C\[C@H]2OC34C=CCN(C(C)(C)C)C(=O)[C@H]3N(CCO)C(=O)[C@@H]4C2C(=O)O1 (stereo partly drawn) | -0.916 |
| CO[C@H]1O[C@H](CO)[C@@H](OC(=O)Nc2ccc(C(F)(F)F)cc2)[C@H](OC(=O)Nc2ccc3c(c2)OCO3)[C@@H]1OC(=O)Nc1ccc2c(c1)OCO2 | 1.08 |
| COc1ccccc1CN1C(=O)c2ccccc2[C@@H](C(=O)NC2CC2)[C@@H]1c1ccc(CO)cc1 | 1.06 |
| C=C(/C(=C/C[C@H](OC(C)=O)c1ccccc1OCCO)c1cnc2ccccc2c1)C(C)C | 0.909 |
| NC(=O)N1C(=O)C2C(C1=O)C1C=C(c3ccc(CO)cc3)C2C(c2cccs2)N1Cc1cccc(OC(F)(F)F)c1 (stereo not drawn) | -0.146 |
| CNS(=O)(=O)c1ccc(C)cc1 | 0.629 |
| O=C(NCCO)C1=C[C@H](Oc2ccccc2I)[C@@H](O)[C@H](N(Cc2ccco2)C(=O)Cc2ccccc2)C1 | 0.271 |
| COC(=O)[C@@]1(Cc2ccc(F)cc2)[C@H]2c3cc(C(=O)N(C)C)n(Cc4ccc(Cl)c(C(F)(F)F)c4)c3C[C@H]2CN1C(=O)c1ccccc1 | 1.02 |
| COCCOC(=O)N1C(=O)[C@@]2(c3cc(C#CCCO)ccc31)[C@H](C(N)=O)[C@H]1C(=O)O[C@H](c3ccccc3)[C@H](c3ccccc3)N1[C@@H]2c1ccc(O)cc1 | -0.589 |
| C=C(CC1([C@@H](NP(=O)(c2ccccc2)c2ccccc2)[C@H]2C[C@@H]2CCCC)CC1)c1ccccc1 | 0.418 |
| CN1C(=O)C2C=CC(C(O)c3ccco3)N(Nc3ccccc3)C2C1=O (stereo not drawn) | 0.275 |
| CN1C(=O)C2C=CC(C(O)C#Cc3ccccc3)N(N3CCCCC3)C2C1=O (stereo not drawn) | 0.964 |
| C=CCOC(=O)[C@H]1[C@@H]2C(=O)O[C@@H](c3ccccc3)[C@@H](c3ccccc3)N2[C@@H](c2ccc(OCCOC(=O)[C@H]3C[C@H]4C(=O)N[C@@H](CCCCNC(C)=O)C(=O)N4[C@H]3c3ccc(O)cc3)cc2)[C@]12C(=O)Nc1ccc(I)cc12 | 1.07 |
| Cc1ccc(S[C@]2(C(=O)NCCCN(C)C)CC(=O)N(Cc3ccccc3C(F)(F)F)[C@@H]2c2ccc(CO)cc2)cc1 | -1.3 |
| C=C(COC)/C(=C/C[C@@H](OC(C)=O)c1ccc(OCCO)cc1)c1cnc2ccccc2c1 | 1.08 |
| [N-]=[N+]=Nc1ccccc1[C@@H]1OC(c2ccc(OCCCO)cc2)=N[C@]1(CCS(=O)(=O)c1ccccc1)C(N)=O | 0.91 |
| [N-]=[N+]=NCc1ccccc1C[C@]1(C(N)=O)COC(c2ccc(OCCCO)cc2)=N1 | 0.31 |
| COc1cc2c(cc1OC)CN(C(=O)[C@H]1[C@@H]3C(=O)O[C@@H](c4ccccc4)[C@@H](c4ccccc4)N3[C@@H](c3ccc(O)cc3)[C@]13C(=O)Nc1ccccc13)CC2 | 0.518 |
| O=C(NCCN1CCOCC1)[C@@H]1c2ccccc2C(=O)N(C2CCCCC2)[C@H]1c1ccc(CO)cc1 | -0.565 |
| COC(=O)[C@@]1(CCS(=O)(=O)c2ccccc2)N=C(c2ccc(OCCCO)cc2)O[C@H]1c1ccccc1CN=[N+]=[N-] | 1 |
| CCCC[C@H]1OB(O)C[C@H]2C1=C(COC)C[C@H]1C(=O)N(C)C(=O)[C@H]12 | 0.769 |
| O=C1O[C@H](c2ccccc2)[C@H](c2ccccc2)N2[C@H]1[C@@H](C(=O)N1CCCCCCC1)[C@]1(C(=O)Nc3ccc(C#CC4=CCCCC4)cc31)[C@H]2c1ccc(OCCO)cc1 | 1.02 |
| COc1cc(Br)cc(C(O)C2C=CC3C(=O)N(C)C(=O)C3N2N2CCCCC2)c1OC (stereo not drawn) | -0.702 |
| COc1ccc(C#Cc2ccc3c(c2)[C@]2(C(=O)N3)[C@H](C(=O)Nc3nc4ccccc4s3)[C@H]3C(=O)O[C@H](c4ccccc4)[C@H](c4ccccc4)N3[C@@H]2c2ccc(O)cc2)cc1 | 1.02 |
| C=CCNC(=O)[C@H]1[C@@H]2C(=O)O[C@@H](c3ccccc3)[C@@H](c3ccccc3)N2[C@@H](c2ccccc2OCCO)[C@]12C(=O)Nc1ccc(C#CCC(C(=O)OC)C(=O)OC)cc12 | 1.05 |
| CC(C)(C)OC(=O)CC[C@]1(C(=O)N2CCOCC2)N=C(c2ccc(OCCCO)cc2)O[C@H]1c1ccccc1N=[N+]=[N-] | 0.671 |
| C=C(C(=O)CC[C@@H](OC(=O)c1cccnc1)c1ccccc1OCCO)C(C)C | 0.272 |
| COCCOC(=O)N1C(=O)[C@@]2(c3cc(C#CC4(O)CCCCCC4)ccc31)[C@H](c1ccccc1OCCO)N1[C@H](c3ccccc3)[C@H](c3ccccc3)OC(=O)[C@H]1[C@@H]2C(=O)N1CCN(c2ncccn2)CC1 | 0.959 |
